Recorded relative viability by entry
- System: NCI-H1395
- Assay Name: relative viability (nuclei count vs DMSO), 5 days (fraction); higher = more cells survive
- Experimental Conditions: first compound 0.000632 µM
I only need the number, thanks.

Check out these entries, answers already filled in.
[[record]]
compound = "CC(=O)O[C@@]12CO[C@@H]1C[C@H](O)[C@@]1(C)C(=O)[C@H](O)C3=C(C)[C@@H](OC(=O)[C@H](O)[C@@H](NC(=O)OC(C)(C)C)c4ccccc4)C[C@@](O)([C@@H](OC(=O)c4ccccc4)[C@H]21)C3(C)C [Docetaxel] + CC1(C)CCC(c2ccc(Cl)cc2)=C(CN2CCN(c3ccc(C(=O)NS(=O)(=O)c4ccc(N[C@H](CCN5CCOCC5)CSc5ccccc5)c(S(=O)(=O)C(F)(F)F)c4)cc3)CC2)C1 [Navitoclax] (partner 0.5 µM)"
recorded_endpoint = "relative viability"
test_result = 1.1

[[record]]
compound = "CC(=O)O[C@@]12CO[C@@H]1C[C@H](O)[C@@]1(C)C(=O)[C@H](O)C3=C(C)[C@@H](OC(=O)[C@H](O)[C@@H](NC(=O)OC(C)(C)C)c4ccccc4)C[C@@](O)([C@@H](OC(=O)c4ccccc4)[C@H]21)C3(C)C [Docetaxel] + Cc1nc(Nc2ncc(C(=O)Nc3c(C)cccc3Cl)s2)cc(N2CCN(CCO)CC2)n1 [Dasatinib] (partner 0.075 µM)"
recorded_endpoint = "relative viability"
test_result = 0.469

[[record]]
compound = "CC(=O)O[C@@]12CO[C@@H]1C[C@H](O)[C@@]1(C)C(=O)[C@H](O)C3=C(C)[C@@H](OC(=O)[C@H](O)[C@@H](NC(=O)OC(C)(C)C)c4ccccc4)C[C@@](O)([C@@H](OC(=O)c4ccccc4)[C@H]21)C3(C)C [Docetaxel] + O=C(CCCCCCC(=O)Nc1ccccc1)NO [Vorinostat] (partner 1 µM)"
recorded_endpoint = "relative viability"
test_result = 0.601


q: Param readout= relative viability; system= NCI-H1395; entry= CC(=O)O[C@@]12CO[C@@H]1C[C@H](O)[C@@]1(C)C(=O)[C@H](O)C3=C(C)[C@@H](OC(=O)[C@H](O)[C@@H](NC(=O)OC(C)(C)C)c4ccccc4)C[C@@](O)([C@@H](OC(=O)c4ccccc4)[C@H]21)C3(C)C [Docetaxel] + CS(=O)(=O)N1CCN(Cc2cc3nc(-c4cccc5[nH]ncc45)nc(N4CCOCC4)c3s2)CC1 [Pictilisib] (partner 1 µM) ; returns value.
a: 0.617

q: Lab note: need relative viability for CC(=O)O[C@@]12CO[C@@H]1C[C@H](O)[C@@]1(C)C(=O)[C@H](O)C3=C(C)[C@@H](OC(=O)[C@H](O)[C@@H](NC(=O)OC(C)(C)C)c4ccccc4)C[C@@](O)([C@@H](OC(=O)c4ccccc4)[C@H]21)C3(C)C [Docetaxel] + CS(=O)(=O)CCNCc1ccc(-c2ccc3ncnc(Nc4ccc(OCc5cccc(F)c5)c(Cl)c4)c3c2)o1 [Lapatinib] (partner 2 µM) on NCI-H1395, anyone have it?
a: 0.954

q: Form entry - test system: NCI-H1395; read-out: relative viability; compound: CC(=O)O[C@@]12CO[C@@H]1C[C@H](O)[C@@]1(C)C(=O)[C@H](O)C3=C(C)[C@@H](OC(=O)[C@H](O)[C@@H](NC(=O)OC(C)(C)C)c4ccccc4)C[C@@](O)([C@@H](OC(=O)c4ccccc4)[C@H]21)C3(C)C [Docetaxel] + CCNC(=O)c1noc(-c2cc(C(C)C)c(O)cc2O)c1-c1ccc(CN2CCOCC2)cc1 [Luminespib] (partner 0.01 µM)
a: 0.771

====

- System: 201T
- Assay Name: relative viability (nuclei count vs DMSO), 5 days (fraction); higher = more cells survive
- Experimental Conditions: first compound 4 µM
Each record here notes measured relative viability.
Reply with just the number.

Answered cases to consult:
[[record]]
compound = "Cc1sc2c(c1C)C(c1ccc(Cl)cc1)=N[C@@H](CC(=O)OC(C)(C)C)c1nnc(C)n1-2 [JQ1] + COc1cccc2cc(-c3nc([C@H]4CC[C@H](C(=O)O)CC4)n4ncnc(N)c34)[nH]c12 [OSI-027] (partner 0.5 µM)"
test_result = 0.201

[[record]]
compound = "Cc1sc2c(c1C)C(c1ccc(Cl)cc1)=N[C@@H](CC(=O)OC(C)(C)C)c1nnc(C)n1-2 [JQ1] + O=C(CCCCCCC(=O)Nc1ccccc1)NO [Vorinostat] (partner 1 µM)"
test_result = 0.367


q: Provide value of relative viability for this record tested with 201T: Cc1sc2c(c1C)C(c1ccc(Cl)cc1)=N[C@@H](CC(=O)OC(C)(C)C)c1nnc(C)n1-2 [JQ1] + NC(=O)Nc1cc(-c2cccc(F)c2)sc1C(=O)N[C@H]1CCCNC1 [AZD7762] (partner 0.2 µM)
a: 0.393

q: Query relative viability on 201T for Cc1sc2c(c1C)C(c1ccc(Cl)cc1)=N[C@@H](CC(=O)OC(C)(C)C)c1nnc(C)n1-2 [JQ1] + COc1cc2c(Oc3ccc(NC(=O)C4(C(=O)Nc5ccc(F)cc5)CC4)cc3F)ccnc2cc1OCCCN1CCOCC1 [Foretinib] (partner 0.25 µM)
a: 0.215

====

- Test system: NCI-H596
- Assay Name: relative viability (nuclei count vs DMSO), 5 days (fraction); higher = more cells survive
- Experimental Conditions: first compound 0.1265 µM
Recorded Endpoint: relative viability
Please reply with the value in numeric form only.

[[record]]
compound = "Cc1sc2c(c1C)C(c1ccc(Cl)cc1)=N[C@@H](CC(=O)OC(C)(C)C)c1nnc(C)n1-2 [JQ1] + C[C@@H](Oc1cc(-c2cnn(C3CCNCC3)c2)cnc1N)c1c(Cl)ccc(F)c1Cl [Crizotinib] (partner 1 µM)"
test_result = 0.85

[[record]]
compound = "Cc1sc2c(c1C)C(c1ccc(Cl)cc1)=N[C@@H](CC(=O)OC(C)(C)C)c1nnc(C)n1-2 [JQ1] + O=C(CCCCCCC(=O)Nc1ccccc1)NO [Vorinostat] (partner 1 µM)"
test_result = 0.643

[[record]]
compound = "Cc1sc2c(c1C)C(c1ccc(Cl)cc1)=N[C@@H](CC(=O)OC(C)(C)C)c1nnc(C)n1-2 [JQ1] + CC1(C)CCC(c2ccc(Cl)cc2)=C(CN2CCN(c3ccc(C(=O)NS(=O)(=O)c4ccc(N[C@H](CCN5CCOCC5)CSc5ccccc5)c(S(=O)(=O)C(F)(F)F)c4)cc3)CC2)C1 [Navitoclax] (partner 0.5 µM)"
test_result = 1.03


q: I would be grateful if you could share the reported relative viability for Cc1sc2c(c1C)C(c1ccc(Cl)cc1)=N[C@@H](CC(=O)OC(C)(C)C)c1nnc(C)n1-2 [JQ1] + Cc1nc(Nc2ncc(C(=O)Nc3c(C)cccc3Cl)s2)cc(N2CCN(CCO)CC2)n1 [Dasatinib] (partner 0.075 µM) .
a: 0.456

q: Requested field: relative viability. Item: Cc1sc2c(c1C)C(c1ccc(Cl)cc1)=N[C@@H](CC(=O)OC(C)(C)C)c1nnc(C)n1-2 [JQ1] + COc1cccc2cc(-c3nc([C@H]4CC[C@H](C(=O)O)CC4)n4ncnc(N)c34)[nH]c12 [OSI-027] (partner 0.5 µM)
a: 0.892

q: Look up relative viability for this compound: Cc1sc2c(c1C)C(c1ccc(Cl)cc1)=N[C@@H](CC(=O)OC(C)(C)C)c1nnc(C)n1-2 [JQ1] + N=C(N)NC(=N)NCCc1ccccc1 [Phenformin] (partner 250 µM)
a: 0.812

q: Item Cc1sc2c(c1C)C(c1ccc(Cl)cc1)=N[C@@H](CC(=O)OC(C)(C)C)c1nnc(C)n1-2 [JQ1] + Cc1cc(Nc2cc(N3CCN(C)CC3)nc(Sc3ccc(NC(=O)C4CC4)cc3)n2)n[nH]1 [Tozasertib] (partner 0.1 µM) has what recorded relative viability?
a: 0.643

q: Please look up its relative viability: Cc1sc2c(c1C)C(c1ccc(Cl)cc1)=N[C@@H](CC(=O)OC(C)(C)C)c1nnc(C)n1-2 [JQ1] + Nc1ncn([C@H]2C[C@H](O)[C@@H](CO)O2)c(=O)n1 [Decitabine] (partner 2 µM)
a: 0.978

====

- Tested on: EPLC-272H
- Assay Name: relative viability (nuclei count vs DMSO), 5 days (fraction); higher = more cells survive
- Experimental Conditions: first compound 0.1581 µM
// reported relative viability for each item listed
Please respond with just the number, no unit label.

Reference set, count: 3
[[record]]
molecule = "COc1cc2nccc(Oc3ccc(NC(=O)Nc4cc(C)on4)c(Cl)c3)c2cc1OC [Tivozanib] + CS(=O)(=O)N1CCN(Cc2cc3nc(-c4cccc5[nH]ncc45)nc(N4CCOCC4)c3s2)CC1 [Pictilisib] (partner 1 µM)"
test_result = 0.285

[[record]]
molecule = "Nc1ccn([C@@H]2O[C@H](CO)[C@@H](O)[C@@H]2O)c(=O)n1 [Cytarabine] + Cc1nc(Nc2ncc(C(=O)Nc3c(C)cccc3Cl)s2)cc(N2CCN(CCO)CC2)n1 [Dasatinib] (partner 0.075 µM)"
test_result = 0.113

[[record]]
molecule = "COc1cc2nccc(Oc3ccc(NC(=O)Nc4cc(C)on4)c(Cl)c3)c2cc1OC [Tivozanib] + CC(=O)c1c(C)c2cnc(Nc3ccc(N4CCNCC4)cn3)nc2n(C2CCCC2)c1=O [Palbociclib] (partner 0.5 µM)"
test_result = 0.348


q: Returns the measured relative viability for the input molecule. Input: Nc1ccn([C@@H]2O[C@H](CO)[C@@H](O)[C@@H]2O)c(=O)n1 [Cytarabine] + CS(=O)(=O)CCNCc1ccc(-c2ccc3ncnc(Nc4ccc(OCc5cccc(F)c5)c(Cl)c4)c3c2)o1 [Lapatinib] (partner 2 µM)
a: 0.315
